Molecular target: hNaV1.7 (Homo sapiens)
Construct: expressed in transfected cells; host or cells: HEK293
Assay: QPatch NaV1.7 assay (whole-cell patch clamp, QPatch16x)
Format: cell-based
Settings: holding voltage V1/2 SSI (half of channels inactivated), HEK293-hNaV1.7 cells, read-out: QP Nav1.7 SSI vhalf pIC50 (converted)
Where a name gives a salt, the structure may show the parent alone.
VALUE_KIND: IC50 (µM)

Some compounds with known IC50 results, for comparison:
compound="CCOc1ccc(F)c(-c2cc([C@H]3CC[C@@]4(CCN(C)C4=O)N3)nc(C)c2C)c1 [Example 144, hydrochloride]" result_value=3.98
compound="O=C1NCC[C@@]12CC[C@@H](c1cc(-c3cccc(OC(F)(F)F)c3)ccn1)N2 [Example 119, hydrochloride]" result_value=3.98
compound="CN1CC[C@@]2(CC[C@H](c3cc(-c4ccc(C(F)(F)F)cc4)c(OC(C)(C)C)cn3)N2)C1=O [Example 62, hydrochloride]" result_value=2
compound="CCOc1cc(-c2cc(C)nc([C@H]3CC[C@@]4(CCN(C)C4=O)N3)c2)c(F)cc1C [Example 202, hydrochloride]" result_value=3.16
compound="CN1CC[C@@]2(CC[C@H](c3cc(-c4cc(OCC(F)F)ccc4F)ccn3)N2)C1=O [Example 252, hydrochloride]" result_value=12.6

a = CCc1cccc(-c2cc(C)nc([C@H]3CC[C@@]4(CCN(C)C4=O)N3)c2)c1F [Example 206, hydrochloride]
b = Cc1cc(-c2ccc(C(F)(F)F)cc2)cc([C@@H]2CC[C@]3(CCNC3=O)N2C)n1 [Example 228, hydrochloride]
Exercise: Lower value of IC50 belongs to which: a or b ? Answer with the label corresponding to your selection.
Solution: b
(b: 3.16 µM, a: 10 µM)

P = CCOc1ccc(F)cc1-c1ccnc([C@H]2CC[C@@]3(CCN(C)C3=O)N2)c1 [Example 4, hydrochloride]
Q = COc1cc(C(F)(F)F)ccc1-c1cc(C)nc([C@@H]2CC[C@@]3(CCN(C)C3=O)N2)c1 [Example 122, hydrochloride]
Exercise: Would you mind telling me which has the lower recorded IC50 between P and Q ? Label of pick, please.
Solution: Q

1 = CN1CC[C@@]2(CC[C@H](c3cc(-c4cccc(-n5cccn5)c4)ccn3)N2)C1=O [Example 173, hydrochloride]
2 = CN1CC[C@@]2(CC[C@H](c3cc(-c4ccccc4C(F)(F)F)ccn3)N2)C1=O [Example 7, hydrochloride]
3 = CCCOc1ccc(F)c(-c2cc(C)nc([C@H]3CC[C@@]4(CCN(C)C4=O)N3)c2)c1 [Example 196, hydrochloride]
Exercise: Rank by IC50 (largest to smallest). Respond with the label ranking, as requested.
Solution: 2, 1, 3

A = CN1CC[C@]2(CC[C@@H](c3cc(-c4ccc(C(F)(F)F)cc4)ccn3)N2)C1=O [Example 54, hydrochloride]
B = CCOc1cccc(-c2cc(C)nc([C@H]3CC[C@@]4(CCN(C)C4=O)N3)c2)c1F [Example 199, hydrochloride]
Exercise: Hi there, can you help? I need to know whether A or B has lower measured IC50. Give the label under which the chosen entry appears.
Solution: B

---

Biological target: hNaV1.7 (Homo sapiens, UniProt Q15858)
Construct: expressed in transfected cells; host or cells: HEK293
Sequence (Q15858 whole entry): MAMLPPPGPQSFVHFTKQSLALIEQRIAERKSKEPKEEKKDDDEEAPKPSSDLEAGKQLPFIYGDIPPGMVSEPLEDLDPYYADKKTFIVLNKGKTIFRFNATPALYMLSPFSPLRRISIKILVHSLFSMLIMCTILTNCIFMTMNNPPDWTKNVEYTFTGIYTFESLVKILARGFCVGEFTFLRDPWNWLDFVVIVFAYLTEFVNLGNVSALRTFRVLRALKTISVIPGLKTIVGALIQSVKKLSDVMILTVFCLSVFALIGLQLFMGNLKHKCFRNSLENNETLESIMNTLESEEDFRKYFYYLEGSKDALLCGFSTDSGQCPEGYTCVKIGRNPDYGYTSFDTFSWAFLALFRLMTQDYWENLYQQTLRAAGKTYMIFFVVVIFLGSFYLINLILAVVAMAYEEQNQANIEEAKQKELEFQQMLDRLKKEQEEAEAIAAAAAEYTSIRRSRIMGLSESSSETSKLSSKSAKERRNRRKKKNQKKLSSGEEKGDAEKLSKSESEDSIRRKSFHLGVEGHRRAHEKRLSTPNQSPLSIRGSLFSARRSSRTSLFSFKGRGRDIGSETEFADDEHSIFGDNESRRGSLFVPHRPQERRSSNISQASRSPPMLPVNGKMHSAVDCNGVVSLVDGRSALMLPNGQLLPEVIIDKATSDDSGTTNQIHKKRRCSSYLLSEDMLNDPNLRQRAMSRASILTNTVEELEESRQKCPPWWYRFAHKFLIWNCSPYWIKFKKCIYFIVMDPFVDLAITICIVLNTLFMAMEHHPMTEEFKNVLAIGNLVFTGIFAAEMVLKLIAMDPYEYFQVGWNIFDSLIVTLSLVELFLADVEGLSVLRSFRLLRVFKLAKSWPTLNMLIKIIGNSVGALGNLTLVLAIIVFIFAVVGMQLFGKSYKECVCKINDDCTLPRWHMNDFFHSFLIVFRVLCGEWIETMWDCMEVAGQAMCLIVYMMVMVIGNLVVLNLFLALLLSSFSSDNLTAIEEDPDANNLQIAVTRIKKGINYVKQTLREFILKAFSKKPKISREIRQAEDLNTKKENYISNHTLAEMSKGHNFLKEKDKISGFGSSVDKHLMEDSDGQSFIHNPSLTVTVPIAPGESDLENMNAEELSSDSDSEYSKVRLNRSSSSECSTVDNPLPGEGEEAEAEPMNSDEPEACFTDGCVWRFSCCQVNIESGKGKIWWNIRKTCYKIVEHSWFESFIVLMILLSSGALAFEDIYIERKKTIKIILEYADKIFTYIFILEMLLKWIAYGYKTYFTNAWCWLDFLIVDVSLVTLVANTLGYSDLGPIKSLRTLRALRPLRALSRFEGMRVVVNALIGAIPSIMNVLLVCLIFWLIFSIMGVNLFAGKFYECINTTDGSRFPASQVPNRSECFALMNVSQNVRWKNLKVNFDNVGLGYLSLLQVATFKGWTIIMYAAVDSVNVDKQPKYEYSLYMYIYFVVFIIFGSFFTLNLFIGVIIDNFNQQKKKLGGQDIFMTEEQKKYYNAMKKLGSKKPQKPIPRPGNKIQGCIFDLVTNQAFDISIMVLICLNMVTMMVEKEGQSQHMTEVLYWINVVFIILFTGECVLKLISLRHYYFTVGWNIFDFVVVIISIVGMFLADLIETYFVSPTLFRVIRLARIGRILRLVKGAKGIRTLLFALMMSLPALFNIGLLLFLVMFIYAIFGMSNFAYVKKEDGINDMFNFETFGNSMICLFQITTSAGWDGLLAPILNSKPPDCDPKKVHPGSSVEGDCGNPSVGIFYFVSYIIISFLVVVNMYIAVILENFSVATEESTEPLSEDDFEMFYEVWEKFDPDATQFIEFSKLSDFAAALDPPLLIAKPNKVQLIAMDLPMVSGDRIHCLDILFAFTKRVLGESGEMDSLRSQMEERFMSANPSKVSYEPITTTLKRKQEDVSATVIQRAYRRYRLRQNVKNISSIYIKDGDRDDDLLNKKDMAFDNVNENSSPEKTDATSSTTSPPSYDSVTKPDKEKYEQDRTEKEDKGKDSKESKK
Experiment: QPatch NaV1.7 assay (whole-cell patch clamp, QPatch16x)
Type: cell-based
Conditions: holding voltage −90 mV (most channels closed), HEK293-hNaV1.7 cells, read-out: QP Nav1.7 −90 mV pIC50 (converted)
Where a name gives a salt, the structure may show the parent alone.
VALUE_KIND: IC50 (µM)

compound="Cc1cc(-c2ccc(C(F)(F)F)cc2)cc([C@H]2CC[C@@]3(CCNC3=O)N2)n1 [Example 94, hydrochloride]" target="hNaV1.7 (Homo sapiens, UniProt Q15858)" value_kind=IC50 units_symbol=µM result_value=3.98
compound="Cc1cc(-c2cc3c(cc2F)CCO3)cc([C@@H]2CC[C@]3(CCN(C)C3=O)N2)n1 [Example 208, hydrochloride]" target="hNaV1.7 (Homo sapiens, UniProt Q15858)" value_kind=IC50 units_symbol=µM result_value=158
compound="CN1CC[C@@]2(CC[C@H](c3cc(-c4ccc(OC(F)F)cc4F)ccn3)N2)C1=O [Example 156, hydrochloride]" target="hNaV1.7 (Homo sapiens, UniProt Q15858)" value_kind=IC50 units_symbol=µM result_value=126
compound="CN1CC[C@@]2(CC[C@H](c3cc(-c4cc(-n5cccn5)ccc4F)ccn3)N2)C1=O [Example 184, hydrochloride]" target="hNaV1.7 (Homo sapiens, UniProt Q15858)" value_kind=IC50 units_symbol=µM result_value=126

A = CN1CC[C@@]2(CC[C@@H](c3cc(-c4ccc(C(F)(F)F)cc4)c(OC(C)(C)C)cn3)N2)C1=O [Example 63, hydrochloride]
B = CN1CCC[C@@]2(CC[C@@H](c3cc(-c4ccc(F)cc4)ccn3)N2)C1=O [Example 72, hydrochloride]
C = CCOc1ccc(-c2ccnc([C@H]3CC[C@@]4(CCN(C)C4=O)N3)c2)cc1OCC [Example 190, hydrochloride]
D = CCOc1ccc(F)c(-c2ccnc([C@H]3CC[C@@]4(CC[C@H](C)NC4=O)N3)c2)c1 [Example 246, hydrochloride]
E = CN1CCC[C@@]2(CC[C@H](c3cc(-c4ccc(C(F)(F)F)cc4)ccn3)N2)C1=O [Example 67, hydrochloride]
Exercise: Given 5 compounds, produce a descending ranking by IC50. List labels; respect the requested ordering.
Solution: C, B, A, E, D
(C: 10000 µM, B: 158 µM, A: 79.4 µM, E: 31.6 µM, D: 15.8 µM)

---

Biological target: hNaV1.7 (Homo sapiens, UniProt Q15858)
Construct: expressed in transfected cells; host or cells: HEK293
Assay: QPatch NaV1.7 assay (whole-cell patch clamp, QPatch16x)
Format: cell-based
Settings: holding voltage −90 mV (most channels closed), HEK293-hNaV1.7 cells, read-out: QP Nav1.7 −90 mV pIC50 (converted)
Where a name gives a salt, the structure may show the parent alone.
VALUE_KIND: IC50 (µM)

Please review the entries below; each comes with its answer.
molecule="COc1cc(C(F)(F)F)ccc1-c1cc([C@H]2CC[C@]3(CCN(C)C3=O)N2)ncc1C [Example 130, hydrochloride]" result_value=158
molecule="Cc1cc(-c2ccc(OC(C)C)cc2)cc([C@@H]2CC[C@@]3(CCN(C)C3=O)N2)n1 [Example 86, hydrochloride]" result_value=100
molecule="CC1(C)C[C@]2(CC[C@H](c3cc(-c4cc(O)ccc4F)ccn3)N2)C(=O)N1 [Example 220]" result_value=200
molecule="CCOc1ccc(F)c(-c2cc(OC)nc([C@H]3CC[C@]4(CCN(C)C4=O)N3)c2)c1 (single isomer, unassigned) [Example 247, hydrochloride]" result_value=20

P = CCOc1ccc(F)c(-c2cc(C)nc([C@@H]3CC[C@]4(CCN(C)C4=O)N3)c2)c1 [Example 120, hydrochloride]
Q = Cc1cc(-c2cc(N3CCCC3=O)ccc2F)cc([C@H]2CC[C@@]3(CCN(C)C3=O)N2)n1 [Example 203, hydrochloride]
Exercise: Could you point out whether the larger IC50 belongs to P or to Q ? I would appreciate it if you answered with the label of your choice.
Solution: Q
(Q: 2000 µM, P: 20 µM)

I = CCCOc1ccc(F)c(-c2ccnc([C@H]3CC[C@@]4(CCN(C)C4=O)N3)c2)c1 [Example 177, hydrochloride]
II = Cc1cc(-c2cc(F)ccc2F)cc([C@H]2CC[C@@]3(CCN(C)C3=O)N2)n1 [Example 211, hydrochloride]
Exercise: # query: argmin of IC50 over I and II Give the label of your selection.
Solution: I
(I: 12.6 µM, II: 251 µM)

a = Cc1cc(-c2ccc(C(F)(F)F)cc2)cc([C@@H]2CC[C@]3(CCN(C)C3=O)N2)n1 [Example 30, hydrochloride]
b = Cc1cc(-c2ccc(C(F)(F)F)cc2)cc([C@@H]2CC[C@]3(CCNC3=O)N2)n1 [Example 95, hydrochloride]
Exercise: Would you kindly point out which of a and b has the smaller IC50 figure? Reply briefly: the label of your chosen item.
Solution: a

---

Target: hNaV1.7 (Homo sapiens, UniProt Q15858)
Construct: expressed in transfected cells; host or cells: HEK293
Test: QPatch NaV1.7 assay (whole-cell patch clamp, QPatch16x)
Assay type: cell-based
Details: holding voltage V1/2 SSI (half of channels inactivated), HEK293-hNaV1.7 cells, read-out: QP Nav1.7 SSI vhalf pIC50 (converted)
Counter-ions that a name gives are not always drawn.
VALUE_KIND: IC50 (µM)

compound="CCOc1ccc(F)c(-c2cc(OC)nc([C@@H]3CC[C@@]4(CCN(C)C4=O)N3)c2)c1 [Example 249, hydrochloride]" result_value=1.26
compound="COc1ccc(Cl)c(-c2ccnc([C@H]3CC[C@@]4(CCN(C)C4=O)N3)c2)c1 [Example 83, hydrochloride]" result_value=31.6
compound="CCOc1ccc(F)c(-c2ccnc([C@@H]3CC[C@]4(CC(C)(C)NC4=O)N3)c2)c1 [Example 219, hydrochloride]" result_value=7.94
compound="Cc1cscc1-c1ccnc([C@H]2CC[C@@]3(CCN(C)C3=O)N2)c1 [Example 78, hydrochloride]" result_value=12.6

P = CN1CC[C@@]2(CC[C@H](c3cc(-c4ccc(Cl)cc4)ccn3)N2)C1=O [Example 13, hydrochloride]
Q = CN1CC[C@@]2(CC[C@H](c3cc(-c4cc(-c5ccnn5C)ccc4F)ccn3)N2)C1=O [Example 192, hydrochloride]
R = CCOc1cc(F)c(F)c(-c2ccnc([C@H]3CC[C@@]4(CCN(C)C4=O)N3)c2)c1 [Example 175, hydrochloride]
Exercise: Thanks in advance: please rank these 3 entries by IC50, highest to lowest. Lab note: final answer is the ordered label list.
Solution: Q, R, P
(Q: 1000 µM, R: 15.8 µM, P: 6.31 µM)
